Biological target: Full length human recombinant HDAC8 protein (Homo sapiens, UniProt Q9BY41)
Construct: Full length human recombinant HDAC8 protein was expressed in baculoviral system; made in house
Sequence (Q9BY41 1-377): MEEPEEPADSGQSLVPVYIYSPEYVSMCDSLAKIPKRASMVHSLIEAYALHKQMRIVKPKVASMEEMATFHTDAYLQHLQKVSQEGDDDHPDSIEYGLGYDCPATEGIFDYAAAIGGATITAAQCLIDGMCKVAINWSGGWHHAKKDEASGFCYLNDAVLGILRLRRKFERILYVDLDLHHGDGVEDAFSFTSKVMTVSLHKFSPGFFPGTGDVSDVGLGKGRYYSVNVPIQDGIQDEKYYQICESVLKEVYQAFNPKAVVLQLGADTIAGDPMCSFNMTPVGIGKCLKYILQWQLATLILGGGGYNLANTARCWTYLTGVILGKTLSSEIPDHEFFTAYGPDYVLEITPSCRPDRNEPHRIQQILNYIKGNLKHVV
Assay: In vitro histone deacetylase assay: enzymatic HDAC8 electrophoretic mobility shift assay
Format: biochemical
Conditions: electrophoretic mobility shift assay; enzyme 1 nM; 2 μM fluorescently labeled peptide substrate RHKK(Ac)-NH2; 25° C.; 12 concentrations; read-out: HDAC8 IC50
QUANTITY NAME: IC50

{"MOLECULE": "O=C(NO)c1ccc2c(c1)N(Cc1nc3cc(F)ccc3o1)C(=O)CO2 [Compound I-217]", "RESULT": "< 25 nM"}
{"MOLECULE": "O=C(NO)c1ccc2c(c1)N(CC[C@@H]1CCS(=O)(=O)C1)C(=O)CO2 (stereo in doubt) [Compound I-54]", "RESULT": "100 to 1000 nM"}
{"MOLECULE": "COc1ccc(CN2C(=O)C(C)Oc3ccc(C(=O)NO)cc32)cc1 (stereo not shown) [Compound I-151]", "RESULT": "< 25 nM"}

GET /values?readout=IC50&system=Full length human recombinant HDAC8 protein (Homo sapiens, UniProt Q9BY41)&item= O=C(NO)c1ccc2c(c1)N(Cc1ccccc1)C(=O)CO2 [Compound I-32]
25 to 100 nM

GET /values?readout=IC50&system=Full length human recombinant HDAC8 protein (Homo sapiens, UniProt Q9BY41)&item= O=C(NO)c1ccc2c(c1)N(Cc1nc3cc(Cl)ccc3s1)C(=O)CO2 [Compound I-290]
< 25 nM

---

Entries and their pIC50 values follow.
molecular target: Full length human recombinant HDAC8 protein (Homo sapiens); construct: Full length human recombinant HDAC8 protein was expressed in baculoviral system; made in house; test: In vitro histone deacetylase assay: enzymatic HDAC8 electrophoretic mobility shift assay; type: biochemical; settings: electrophoretic mobility shift assay; enzyme 1 nM; 2 μM fluorescently labeled peptide substrate RHKK(Ac)-NH2; 25° C.; 12 concentrations; read-out: HDAC8 IC50
pIC50: −log10 of the molar value.

{"COMPOUND": "O=C(NO)c1ccc2c(c1)N(Cc1ccccc1C(F)(F)F)CCO2 [Compound I-129]", "RESULT": "6.00 to 7.00"}
{"COMPOUND": "O=C(NO)c1ccc2c(c1)N(Cc1cc(C(F)(F)F)ccc1F)C(=O)CO2 [Compound I-73]", "RESULT": "> 7.60"}
{"COMPOUND": "COc1ccc(CN2C(=O)COc3ccc(C(=O)NO)cc32)c(Cl)c1 [Compound I-242]", "RESULT": "> 7.60"}
{"COMPOUND": "O=C(NO)c1ccc2c(c1)N(Cc1c(Cl)cccc1Cl)C(=O)CO2 [Compound I-253]", "RESULT": "7.00 to 7.60"}
{"COMPOUND": "O=C(NO)c1ccc2c(c1)N(Cc1nc3ccc(Cl)cc3n1CC1CC1)C(=O)CO2 [Compound I-260]", "RESULT": "6.00 to 7.00"}

Item O=C(NO)c1ccc2c(c1)N(Cc1ccc(F)c(C(F)(F)F)c1)C(=O)CO2 [Compound I-267] has what recorded pIC50?
7.00 to 7.60

Item CC1(C)Oc2ccc(C(=O)NO)cc2N(Cc2ccc(Cl)cc2F)C1=O [Compound I-161] has what recorded pIC50?
> 7.60

Item O=C(NO)c1ccc2c(c1)N(Cc1cccc(-c3ccccc3)c1)C(=O)CO2 [Compound I-75] has what recorded pIC50?
> 7.60

The reported numbers originate from patent US10370343B2.
